Cited source: patent US10273221B2

attribute_measured: melting point

Recorded melting point, per entry:
compound | melting point
Cc1ccc2c(ncn2C2=NC(C)(C)C(=O)c3ccccc32)c1C | 159 to 161 °C
Cc1ccc2c(ncn2C2=NC(C)(C)C(=O)c3cc(Cl)ccc32)c1C | 196 to 199 °C
Cc1cccc2c1ncn2C1=NC(C)(C)C(C)(C)c2c(F)cccc21 [E-1] | 45 to 46 °C

From here, focus on the item given below.
Lookup: Given the compound Cc1cccc2c1ncn2C1=NC(C)(C)C(C)(C)c2c(F)cccc21 [Example 1] , write its reported melting point.
Found: 118 to 120 °C

---

attribute_measured: melting point

# example entries with known answers
compound | measured
Cc1cccc2c1ncn2C1=NC(C)(C)C(=O)c2ccccc21 | 123 to 125 °C
Cc1c(Br)ccc2c1ncn2C1=NC(C)(C)C(C)(C)c2c(F)cccc21 | 122 to 124 °C
Cc1c(Cl)ccc2c1ncn2C1=NC(C)(C)C(C)(C)c2c(F)cccc21 | 102 to 103 °C
C=Cc1cccc2c1ncn2C1=NC(C)(C)C(C)(C)c2c(F)cccc21 | 70 to 71 °C
CC1(C)N=C(n2cnc3c(Br)cccc32)c2cccc(F)c2C1(C)C | 48 to 49 °C

Each compound below has a recorded value; state its melting point.
1. Cc1cccc2c1ncn2C1=NC(C)(C)Cc2c(Br)cccc21
2. CC1(C)N=C(n2cnc3c4c(ccc32)CCC4)c2cccc(F)c2C1(C)C

Found:
["52 to 54 °C", "177 to 178 °C"]

Please look at the items below and tell me melting point for each one, in order.
1. CC1(C)N=C(n2cnc3cc(Cl)c(Cl)cc32)c2cccc(F)c2C1(C)C
2. Cc1ccc2c(ncn2C2=NC3(CC3)C3(CC3)c3ccccc32)c1C
3. Cc1c(F)ccc2c1ncn2C1=NC(C)(C)C(=O)c2cc(Cl)ccc21
4. Cc1ccc2c(ncn2C2=NC(C)(C)Cc3cc(F)ccc32)c1C

Found:
1: 126 to 127 °C; 2: 141 to 143 °C; 3: 133 to 136 °C; 4: 143 to 145 °C

Return reported melting point values for all items listed beneath this line.
1. Cc1cccc2c1ncn2C1=NC(C)(C)C(F)(F)c2ccccc21
2. COC(=O)c1cccc2c1ncn2C1=NC(C)(C)C(C)(C)c2c(F)cccc21
3. CC(C)c1cccc2c1ncn2C1=NC(C)(C)C(C)(C)c2c(F)cccc21
4. Cc1cccc2c1ncn2C1=NC(C)(C)C(C)(C)c2c1ccc(F)c2F
5. Cc1cccc2c1C(=O)C(C)(C)N=C2n1cnc2c(C)cccc21
6. Cc1cccc2c1ncn2C1=NC(C)(C)C(C)(C)c2c1ccc(Cl)c2F

Found:
1. 142 to 149 °C
2. 178 to 179 °C
3. 113 to 114 °C
4. 122 to 125 °C
5. 96 to 101 °C
6. 147 to 151 °C

# batch: return melting point for each of the 3 compounds below
1. Cc1cccc2c1ncn2C1=NC(C)(C)C(=O)c2cc(Cl)ccc21
2. CC1(C)N=C(n2cnc3c(Cl)cccc32)c2ccc(Cl)cc2C1(F)F
3. Cc1cccc2c1C(=O)C(C)(C)N=C2n1cnc2c(C)c(C)ccc21

Found:
1. 129 to 133 °C
2. 197 to 200 °C
3. 145 to 149 °C

---

Record form. Attribute: melting point. Fill in for each entry.

compound | melting point
Cc1cccc2c1ncn2C1=NC2(CCC2)Cc2ccccc21 | 132 to 133 °C
Cc1c(F)ccc2c1ncn2C1=NC(C)(C)C(F)(F)c2ccccc21 | 118 to 121 °C
CC1(C)N=C(n2cnc3c(F)c(F)ccc32)c2cccc(F)c2C1(C)C | 112 to 114 °C

Please supply melting point for each of the following items, keeping them in order.
1. CC1(C)N=C(n2cnc3c(Cl)cccc32)c2cccc(F)c2C1(C)C
2. CCc1cccc2c1ncn2C1=NC(C)(C)C(C)(C)c2c(F)cccc21

Found:
1. 50 to 51 °C
2. 87 to 88 °C
